FYI, the data here is from ChEMBL document CHEMBL5058564.

Overview of reported Growth Rate across a group of molecules:
Tested on: Fibroblast
protocol: Incucyte cell viability with human fibroblast; further: unitless GR value; below 1 slowed growth and below 0 cell loss
Assay type: toxicity, cell-based
measurement-context: 24 h, 10 µM, compound concentration 10 uM, replicate number 1, timepoint 24 hours

Known Growth Rate results, listed for orientation:
# molecule, assay-target, result
rows = [
    ("O=C(O)CCC/C=C\\CC1C(O)CC(O)C1/C=C/C(O)COc1cccc(Cl)c1 (centres undefined)", "Fibroblast", 0.18),
    ("OCCN1CCN(CCCN2c3ccccc3Sc3ccc(Cl)cc32)CC1", "Fibroblast", -0.08),
    ("COc1ccc2cc(S(=O)(=O)N[C@H](CC(=O)N[C@H](Cc3ccc(CN4[C@H](C)CCC[C@@H]4C)cc3)C(=O)N(C)C(C)C)c3ccc4c(c3)OCO4)ccc2c1.Cl", "Fibroblast", -0.57),
]

The reported value for Cc1cccc(NC(=O)CN2CCC(c3ccccn3)CC2)c1.Cl.Cl in terms of Growth Rate is 0.77

The molecule identified as Cc1ccc(Cn2nc(C(=O)N[C@@H]3C(C)(C)[C@@H]4CC[C@@]3(C)C4)cc2-c2ccc(Cl)c(C)c2)cc1 registered its Growth Rate at 0.72

// sample COc1c(C)cc(NC(=O)c2nn(Cc3ccc(F)cc3)c3c2CN(C(=O)c2ccc[nH]2)C[C@]3(C)C(N)=O)cc1C , its Growth Rate was -0.31

Growth Rate in this record for CC(COc1ccccc1)N(CCCl)Cc1ccccc1.Cl (centres undefined) [PHENOXYBENZAMINE HYDROCHLORIDE] : 0.51

Entry CCN1/C(=C/C(C)=O)Sc2ccc(OC(C)=O)cc21 , Growth Rate reported as 0.38

In plain terms, CC(C)(O)C(=O)N1CCN(c2ccc(C(F)(F)F)c(C3=C(c4c[nH]c5ccccc45)C(=O)NC3=O)c2)CC1 has a documented Growth Rate of -0.3

====

Test system: U2OS
protocol: Incucyte cell viability with U2OS; further: unitless GR value; below 1 slowed growth and below 0 cell loss
Format: toxicity, cell-based
measurement-context: human, 6 h, 10 µM, compound concentration 10 uM, replicate number 1, timepoint 6 hours
Let's look at some compounds and their measured Growth Rate.
Reply: number alone, nothing else.

Solved entries (count: 4):
# molecular-string, Growth Rate
measured = [
    ("CCc1cc2cc(NS(=O)(=O)c3ccc(C#N)cc3)ccc2n(CC)c1=O", 0.95),
    ("N=C(N)NCCC[C@@H](NC(=O)C(c1ccccc1)c1ccccc1)C(=O)NCc1ccc(CNC(N)=O)cc1.O=C(O)C(F)(F)F.O=C(O)C(F)(F)F", 0.1),
    ("CC(C)(C)c1cc(NC(=O)Nc2ccc(-c3cn4c(n3)sc3cc(OCCN5CCOCC5)ccc34)cc2)no1", 0.41),
    ("CC(C)Oc1ccc(Cc2ccc(NC3=NCCN3)cc2)cc1", 0.26),
]

Entry CN(c1ncccc1CNc1ccnc(-c2cc3cc(Cl)ccc3[nH]2)n1)S(C)(=O)=O , Growth Rate reported as 0.59

Just so you know, measured Growth Rate for O=C(Nc1cc(-c2cn[nH]c2)ccc1N1CCOCC1)c1ccc(-c2ccc3ncccc3c2)o1 came out at 0.9

For OC[C@H]1O[C@@H](n2cnc3c(NC4CCCC4)ncnc32)[C@H](O)[C@@H]1O the compound record lists Growth Rate as 0.36

Growth Rate for CC(C)[C@H](C(=O)Nc1ccc(C(=O)NO)cc1)c1ccccc1 is 0.34

Value of Growth Rate reported for the compound CN(C)CCN(Cc1ccc(-c2ccc(CNCCc3ccccc3)cc2)cc1)C(=O)CCC1CCCC1.Cl.Cl is -1

====

Tested on: HEK-293T
protocol: Incucyte cell viability with HEK293T; further: unitless GR value; below 1 slowed growth and below 0 cell loss
Assay type: toxicity, cell-based
measurement-context: human, 6 h, 10 µM, compound concentration 10 uM, replicate number 1, timepoint 6 hours
endpoint-label: Growth Rate
Keep it simple and answer with nothing but the number.

Record excerpt, results attached:
# compound, assay-target, numeric-result
records = [
    ("CN(C)C/C=C/C(=O)Nc1ccc(C(=O)N2CCCC(Nc3ncc(Cl)c(-c4c[nH]c5ccccc45)n3)C2)cc1 (stereo not drawn)", "HEK-293T", -0.75),
    ("CN1CCN(c2nc3cc(C(F)(F)F)ccc3n3cccc23)CC1.O=C(O)/C=C\\C(=O)O.O=C(O)/C=C\\C(=O)O", "HEK-293T", 0.89),
    ("Cl.Cl.NCCc1c[nH]cn1 [HISTAMINE DIHYDROCHLORIDE]", "HEK-293T", 0.99),
]

Notebook: O=C1[C@H](Cc2ccc(O)cc2)N2C(=O)CCN(C(=O)NCc3ccccc3)[C@H]2CN1Cc1cccc2ccccc12 , Growth Rate read as -0.42

Growth Rate for C[C@@H](O[C@H]1OCCN(Cc2n[nH]c(=O)[nH]2)[C@H]1c1ccc(F)cc1)c1cc(C(F)(F)F)cc(C(F)(F)F)c1 [APREPITANT] is 0.91

Growth Rate for CO[C@H]1CC[C@@H](C(=O)c2ccc3nc4c(cc3c2)CCCO4)CC1 is 0.72

// Growth Rate value for CCCCCCCCCCCCCCC[C@@H](O)[C@@H](N)COP(=O)(O)O : 0.25

The reported Growth Rate of the compound CC(C)n1cnc2c(Nc3cccc(Cl)c3)nc(N[C@H]3CCCC[C@@H]3N)nc21 was -0.84

====

Test system: HEK-293T
protocol: Incucyte cell viability with HEK293T; further: unitless GR value; below 1 slowed growth and below 0 cell loss
Format: toxicity, cell-based
measurement-context: human, 6 h, 10 µM, compound concentration 10 uM, replicate number 1, timepoint 6 hours
Label Satisfied when Growth Rate is at or above 0.6; otherwise label Not satisfied.

Example cases with answers are listed next.
# compound, assay-target, class
rows = [
    ("CN[C@@H]1Cc2cccc3[nH]c(=O)n(c23)C1.O=C(O)/C=C\\C(=O)O", "HEK-293T", "Satisfied"),
    ("N#Cc1c(N)nc(SCc2csc(-c3ccc(Cl)cc3)n2)c(C#N)c1-c1ccc(OCCO)cc1", "HEK-293T", "Satisfied"),
    ("CS(=O)(=O)N1CCCC(NC(=O)[C@H](CCC2CCCCC2)NC(=O)c2ccc(CNc3ncnc4c3nnn4-c3ccccc3)cc2)C1 (stereo not given in full)", "HEK-293T", "Not satisfied"),
]

Kindly consider the entry below.
Form field: Growth Rate at least 0.6? Entry: Cc1ccccc1C(=O)Nc1ccc(C(=O)N2CCCC(N(C)C)c3ccccc32)cc1.Cl (stereo not given)
Not satisfied

====

Tested on: HEK-293T
protocol: Incucyte cell viability with HEK293T; further: unitless GR value; below 1 slowed growth and below 0 cell loss
Assay type: toxicity, cell-based
measurement-context: human, 0 h, 10 µM, compound concentration 10 uM, replicate number 2, timepoint 0 hours
Exam item: assign 1.0 to entries whose Growth Rate is below 0.7 and 0.0 to entries at or above 0.7. Note that a value of exactly 0.7 receives 0.0.

The examples below pair each entry with its known result.
# compound, assay-target, class
rows = [
    ("Brc1c(N=C2NCCN2)ccc2nccnc12.O=C(O)C(O)C(O)C(=O)O", "HEK-293T", 0.0),
    ("O=C1NC(=O)C(c2ccccc2[N+](=O)[O-])=C1Nc1ccc(O)c(Cl)c1", "HEK-293T", 1.0),
    ("Nc1nc(Nc2ccccc2)nc2c1ncn2[C@@H]1O[C@H](CO)[C@@H](O)[C@H]1O", "HEK-293T", 1.0),
    ("CN1CCC(C(=O)c2cccc(NC(=O)c3c(F)cc(F)cc3F)n2)CC1", "HEK-293T", 1.0),
    ("C[S+](C)[O-] [DIMETHYL SULFOXIDE]", "HEK-293T", 1.0),
    ("COc1ccccc1N1CCN(CCCCNC(=O)c2ccc3ccccc3c2)CC1.Cl", "HEK-293T", 0.0),
]

A record lists CCCCC(=O)N(Cc1ccc(-c2ccccc2-c2nnn[nH]2)cc1)[C@H](C(=O)O)C(C)C . Is its Growth Rate below 0.7?
0.0

Threshold test, Growth Rate < 0.7: COC(=O)[C@H]1[C@H]2C[C@H]3c4[nH]c5ccccc5c4CCN3C[C@H]2CC[C@@H]1O.Cl [RAUWOLSCINE HYDROCHLORIDE]
1.0

Strictly below 0.7 in Growth Rate? O=C(O)c1cccc(/C=C2/C[C@@H]3[C@@H](/C=C/[C@H](O)C4CCCCC4)[C@H](O)C[C@@H]3O2)c1
1.0

====

Below: a set of entries, each annotated with reported Growth Rate.
Test system: U2OS
protocol: Incucyte cell viability with U2OS; further: unitless GR value; below 1 slowed growth and below 0 cell loss
Assay type: toxicity, cell-based
measurement-context: human, 6 h, 10 µM, compound concentration 10 uM, replicate number 2, timepoint 6 hours
Lab note: write the figure by itself, no unit.

For orientation, consider the following solved cases.
# compound, Growth Rate
data = [
    ("Cc1cnc(CNCC2(F)CCN(C(=O)c3ccc(F)c(Cl)c3)CC2)nc1", 0.86),
    ("Cl.FC(F)(F)c1ccc(N2CCNCC2)nc1Cl", 0.86),
    ("CN(C)[C@H]1CN(C2CCc3cccc(F)c32)C[C@@H]1c1ccc(N2CCN(S(C)(=O)=O)CC2)cc1 (some centres undefined)", 0.61),
    ("Cl.Clc1cccc(Cl)c1NC1=NCCN1 [CLONIDINE HYDROCHLORIDE]", 0.91),
]

The recorded Growth Rate for Br.Cc1cccc(C2CN(C)CCc3c2cc(O)c(O)c3Cl)c1 (centres undefined) is 0.97

Reported Growth Rate ( CCCCC1=NC2(CCCC2)C(=O)N1Cc1ccc(-c2ccccc2-c2nnn[nH]2)cc1 ) = 0.94

Measured Growth Rate, Cc1cc(NC(=O)NCCN2CCC(O)(Cc3ccccc3)CC2)c2ccccc2n1 : 0.73

Please fill in: Growth Rate reported for C[C@H]1[C@H]2CC[C@H]3[C@@H]4CC=C5C[C@@H](N(C)C)CC[C@]5(C)[C@H]4CC[C@]23CN1C = 0.8

So, CNC[C@H](O)c1ccc(O)c(O)c1 [EPINEPHRINE] ? Its Growth Rate was 0.96
